biological target: Eukaryotic system (eukaryotic cytoplasmic ribosome); experiment: Eukaryotic translation inhibition, coupled transcription/translation, luciferase detection; format: biochemical; details: Table 1; read-out: Translation inhibition Eukaryotic System IC50
Each record is given rule met if its reported IC50 is strictly below 30 µM. Records at or above 30 µM are given rule not met.

These solved cases illustrate the format of a correct answer.
# molecule, qualitative_label
data = [
    ("C[C@H](N)[C@H]1O[C@@H](OC2C(O)[C@H](NC(=O)[C@@H](O)CCN)CC(N)[C@H]2O[C@H]2OC(CO)[C@@H](O)C(O)C2N)C(O)C1O (stereo partly shown)", "rule met"),
    ("C[C@H](N)[C@H]1O[C@@H](OC2C(O)[C@H](N)CC(N)[C@H]2O[C@H]2OC(CO)[C@@H](O)C(O)C2N)C(O)C1O (stereo partly shown)", "rule met"),
    ("NC[C@@H]1O[C@H](O[C@H]2[C@@H](O)[C@H](O[C@@H]3[C@@H](O)[C@H](N)C[C@H](N)[C@H]3O[C@H]3O[C@H](CO)[C@@H](O)[C@H](O)[C@H]3N)O[C@@H]2CO)[C@H](N)[C@@H](O)[C@@H]1O [Paromomycin, reference compound]", "rule not met"),
]

Exam item: Hi there! Is IC50 for NC[C@H]1O[C@@H](O[C@@H]2C(O)[C@H](N)CC(N)[C@H]2O[C@H]2OC(CO)[C@@H](O)[C@H](O)C2N)C(O)[C@H]1O (stereo partly shown) [NB30, reference compound] below 30 µM, do you know?
Marked response: rule not met

Exam item: How about this molecule: NCC[C@H](O)C(=O)N[C@@H]1CC(N)[C@@H](O[C@H]2OC(CO)[C@@H](O)[C@H](O)C2N)[C@H](O[C@@H]2O[C@H](CN)[C@H](O)C2O)C1O (stereo partly shown) [NB54, reference compound]
Marked response: rule met

Exam item: How about this molecule: C[C@@H](N)[C@H]1O[C@@H](OC2C(O)[C@H](NC(=O)[C@@H](O)CCN)CC(N)[C@H]2O[C@H]2OC(CO)[C@@H](O)C(O)C2N)C(O)C1O (stereo partly shown)
Marked response: rule met

Exam item: How about this molecule: C[C@@H](N)[C@H]1O[C@@H](OC2C(O)[C@H](N)CC(N)[C@H]2O[C@H]2OC(CO)[C@@H](O)C(O)C2N)C(O)C1O (stereo partly shown)
Marked response: rule met

* * *

Recorded pIC50, one value per entry.
molecular target: Prokaryotic system (prokaryotic ribosome); experiment: Prokaryotic translation inhibition, coupled transcription/translation, luciferase detection; format: biochemical; details: Table 3; read-out: Translation Inhibition IC50^Pro
Notebook: values listed as pIC50 are -log10 of the concentration (mol/L).

Below, each entry is followed by its recorded pIC50 result.
# compound, experimental_value
data = [
    ("C[C@@H](N)[C@H]1O[C@@H](OC2C(O)[C@H](NC(=O)[C@@H](O)CCN)CC(N)[C@H]2O[C@H]2OC(CO)[C@@H](O)C(O)C2N)C(O)C1O (some centres unmarked)", 6.09),
    ("C[C@@H](N)[C@H]1O[C@@H](OC2C(O)[C@H](N)CC(N)[C@H]2O[C@H]2OC(CO)[C@@H](O)C(O)C2N)C(O)C1O (some centres unmarked)", 5.67),
    ("C[C@@H](O)C1O[C@H](O[C@@H]2C(N)C[C@@H](N)[C@@H](O)C2O[C@@H]2O[C@H](CN)[C@H](O)C2O)[C@@H](N)C(O)[C@@H]1O (some centres unmarked) [NB74, reference compound]", 5.95),
]

Exam item: Form field: reported pIC50 of CN[C@H]1[C@@H](O)C(OC2[C@H](N)CC(N)[C@@H](O[C@H]3OC(C(C)O)[C@@H](O)[C@H](O)C3N)[C@@H]2O)OCC1(C)O (some centres unmarked) [G418, reference compound]
Marked response: 8.05

Exam item: How about this compound: C[C@@H](O)C1O[C@H](O[C@@H]2C(N)C[C@@H](NC(=O)[C@@H](O)CCN)[C@@H](O)C2O[C@@H]2O[C@H](CN)[C@H](O)C2O)[C@@H](N)C(O)[C@@H]1O (some centres unmarked) [NB84, reference compound]
Marked response: 6.01

Exam item: How about this compound: NC[C@@H]1O[C@H](O[C@H]2[C@@H](O)[C@H](O[C@@H]3[C@@H](O)[C@H](N)C[C@H](N)[C@H]3O[C@H]3O[C@H](CO)[C@@H](O)[C@H](O)[C@H]3N)O[C@@H]2CO)[C@H](N)[C@@H](O)[C@@H]1O [Paromomycin, reference compound]
Marked response: 7.29

Exam item: How about this compound: C[C@H](N)[C@H]1O[C@@H](OC2C(O)[C@H](N)CC(N)[C@H]2O[C@H]2OC(CO)[C@@H](O)C(O)C2N)C(O)C1O (some centres unmarked)
Marked response: 5.71

Exam item: How about this compound: NCC[C@H](O)C(=O)N[C@@H]1CC(N)[C@@H](O[C@H]2OC(CO)[C@@H](O)[C@H](O)C2N)[C@H](O[C@@H]2O[C@H](CN)[C@H](O)C2O)C1O (some centres unmarked) [NB54, reference compound]
Marked response: 6.80

Where do these numbers come from? They come from patent US11865128B2.
